What IC50, IL23R reporter assay was measured for each of the following?
- TARGET: T1, interleukin-23 receptor (IL-23R) (UniProt Q5VWK5 24-629, limits assumed)
- T1 sequence (looked up): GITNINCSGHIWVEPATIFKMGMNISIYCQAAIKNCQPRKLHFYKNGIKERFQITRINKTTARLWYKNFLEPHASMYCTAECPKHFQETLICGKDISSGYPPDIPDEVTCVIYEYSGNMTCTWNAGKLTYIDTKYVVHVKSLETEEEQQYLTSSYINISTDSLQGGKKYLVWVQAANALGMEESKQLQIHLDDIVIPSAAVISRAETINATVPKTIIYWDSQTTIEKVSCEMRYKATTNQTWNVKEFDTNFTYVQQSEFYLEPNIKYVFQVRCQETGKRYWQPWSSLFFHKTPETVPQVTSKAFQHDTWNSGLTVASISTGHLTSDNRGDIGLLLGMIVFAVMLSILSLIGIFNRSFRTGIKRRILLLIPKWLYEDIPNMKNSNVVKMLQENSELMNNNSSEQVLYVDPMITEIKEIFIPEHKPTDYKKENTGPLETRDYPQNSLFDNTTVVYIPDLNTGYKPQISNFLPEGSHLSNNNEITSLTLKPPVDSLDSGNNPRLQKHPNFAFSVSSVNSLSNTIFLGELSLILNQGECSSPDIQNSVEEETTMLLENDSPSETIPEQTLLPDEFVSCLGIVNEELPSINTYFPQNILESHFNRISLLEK
- TEST: cell-based or functional assay
*1 amine or outer side, *2 acyl side, *3 side chain or, on linkers, in order; H or OH if unused. Bridges are numbered along the chain shown (N, C = ends). Primed or numbered codes have the meaning given here. Where no end group is shown, it is not given here. Side-chain parts run from the residue outwards. [ ]: non-standard residue; d: D form. TMAPF = 5-(4-(2-amino-2-carboxyethyl)phenoxy)-N,N,N-trimethylpentan-1-aminium, C[N+](C)(C)CCCCCOc1ccc(C[C@H](N[*:1])C(=O)[*:2])cc1; PEG2′ = PEG2 spacer unit (not further defined); Trp(7-Me) = Cc1cccc2c(C[C@H](N)C(=O)O)c[nH]c12; γGlu = O=C(O)[C@H](CCC(=O)[*:2])N[*:1]; 2Nal = N[C@@H](Cc1ccc2ccccc2c1)C(=O)O; AEF = NCCOc1ccc(C[C@H](N)C(=O)O)cc1; 3Pal = N[C@@H](Cc1cccnc1)C(=O)O; NMecPEG3a = not defined here; Pen = CC(C)(S)[C@H](N)C(=O)O; PEG2″ = PEG2 spacer unit; Thp = NC1(C(=O)O)CCOCC1; Sar = CNCC(=O)O

Inquiry: Reported IC50, IL23R reporter assay for {HOC18-γGlu-PEG2″-PEG2″}-[dR][Pen]NT[Trp(7-Me)]K(Ac)[Pen][AEF][2Nal][Thp]K(NMecPEG3a)N[3Pal][Sar]-NH2 (disulfide 2-7 (inferred); not fully specified; printed as HOC18gEPEG2PEG2CO-r-Pen(3)-N-T-7MeW-K(Ac)-Pen(3)-AEF-2Nal-THP-K(NMecPEG3a)-N-3Pya-Sar-CONH2; reading uncertain) [SEQ ID NO: 82] : what is it?
Reply text: < 50 nM

Inquiry: // returns reported IC50, IL23R reporter assay for input Ac-[dR][Pen]K([PEG2″-PEG2″-γGlu-C18OH])T[Trp(7-Me)]K(Ac)[Pen][TMAPF][2Nal][Thp]EN[3Pal][Sar]-NH2 (disulfide 2-7 (inferred)) [SEQ ID NO: 75]
Reply text: < 50 nM

Inquiry: Could you share which IC50, IL23R reporter assay value was measured for XNTXXXXXXENXXK (MeCO-Pen(3)-N-T-7MeW-K(Ac)-Pen(3)-AEF-2Nal-THP-E-N-3Pya-Sar-K(PEG2PEG2gEC18OH)-CON(Me)2) [SEQ ID NO: 149] ?
Reply text: ≥ 500 nM

Inquiry: Param item = XNTXXXXXXKNXX (not fully specified; MeCO-Pen(3)-N-T-7MeW-K(Ac)-Pen(3)-AEF-2Nal-THP-K(PEG2PEG2gEC18OH)-N-3Pya-Sar-CONH(PEG3a)) [SEQ ID NO: 64] ; retrieve measured IC50, IL23R reporter assay.
Reply text: ≥ 500 nM

Inquiry: Requested read-out: IC50, IL23R reporter assay. Entry: Ac-[dR][Pen]K([PEG2″-PEG2″-γGlu-C18OH])T[Trp(7-Me)]K(Ac)[Pen][AEF][2Nal][Thp]EN[3Pal][Sar] (disulfide 2-7 (inferred); not fully specified (C-terminus); printed as MeCO-r-Pen(3)-K(PEG2PEG2gEC18OH)-T-7MeW-K(Ac)-Pen(3)-AEF-2Nal-THP-E-N-3Pya-Sar-CONH(PEG3a)) [SEQ ID NO: 66]
Reply text: ≥ 500 nM

Inquiry: What measured IC50, IL23R reporter assay goes with Ac-[dR][Pen]K([PEG2″-PEG2″-γGlu-C18OH])T[Trp(7-Me)]K(NMecPEG3a)[Pen][AEF][2Nal][Thp]EN[3Pal][Sar]-NH2 (disulfide 2-7 (inferred); reading uncertain; also: printed as MeCO-r-Pen(3)-K(PEG2PEG2gEC18OH)-T-7MeW-K(NMecPEG3a)-Pen(3)-AEF-2Nal-THP-E-N-3Pya-Sar-CONH2) [SEQ ID NO: 76] ?
Reply text: < 50 nM

Inquiry: Quick check: IC50, IL23R reporter assay of Ac-[dR][Pen]NT[Trp(7-Me)]Q[Pen][AEF][2Nal][Thp]EN[3Pal][Sar]K([PEG2′-PEG2′-γGlu-C18OH])-NH2 (disulfide 2-7 (inferred)) [SEQ ID NO: 38] ?
Reply text: < 50 nM
